Recorded measurements of EC50, one per entry
Biological target: T1, mouse CNTN4-rabbit Fc (mouse; rabbit, UniProt Q69Z26 19-1000, limits assumed)
T1 construct: not shown: rabbit Fc
T1 sequence (looked up): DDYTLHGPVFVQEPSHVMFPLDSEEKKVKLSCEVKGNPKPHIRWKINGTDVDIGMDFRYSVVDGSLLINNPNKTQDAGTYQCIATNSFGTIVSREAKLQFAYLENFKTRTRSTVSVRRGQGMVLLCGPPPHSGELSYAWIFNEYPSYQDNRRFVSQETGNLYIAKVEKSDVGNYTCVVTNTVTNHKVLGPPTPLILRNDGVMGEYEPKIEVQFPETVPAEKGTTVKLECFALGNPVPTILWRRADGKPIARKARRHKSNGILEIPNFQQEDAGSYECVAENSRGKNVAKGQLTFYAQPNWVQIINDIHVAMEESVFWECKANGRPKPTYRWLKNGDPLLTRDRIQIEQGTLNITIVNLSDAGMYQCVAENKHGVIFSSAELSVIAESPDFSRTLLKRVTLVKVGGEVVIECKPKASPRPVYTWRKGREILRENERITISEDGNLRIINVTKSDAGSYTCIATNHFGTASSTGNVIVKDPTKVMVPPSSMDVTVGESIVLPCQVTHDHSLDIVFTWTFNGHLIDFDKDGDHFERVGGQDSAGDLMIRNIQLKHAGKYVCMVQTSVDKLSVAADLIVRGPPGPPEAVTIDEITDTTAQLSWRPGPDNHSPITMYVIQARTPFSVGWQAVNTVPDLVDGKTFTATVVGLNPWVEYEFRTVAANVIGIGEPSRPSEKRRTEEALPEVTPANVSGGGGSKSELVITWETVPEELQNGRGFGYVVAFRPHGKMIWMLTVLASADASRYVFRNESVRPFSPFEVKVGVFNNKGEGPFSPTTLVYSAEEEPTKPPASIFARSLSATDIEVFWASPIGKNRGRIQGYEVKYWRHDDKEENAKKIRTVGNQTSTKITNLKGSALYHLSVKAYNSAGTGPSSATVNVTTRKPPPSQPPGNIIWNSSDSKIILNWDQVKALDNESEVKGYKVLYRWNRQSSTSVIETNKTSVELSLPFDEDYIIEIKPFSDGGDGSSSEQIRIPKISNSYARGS
Assay: ELISA, plate coated with antigen-rabbit Fc, anti-human IgG Fc-HRP
Please don't drop the unit; write it after the number.

• anti-CNTN4 IgG A35SF14 (antibody, V domains shown, human IgG4 (S228P)) VH: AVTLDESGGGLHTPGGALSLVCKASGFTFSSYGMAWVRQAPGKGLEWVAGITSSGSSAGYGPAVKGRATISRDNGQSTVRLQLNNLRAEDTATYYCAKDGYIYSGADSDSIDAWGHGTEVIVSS VL: ALTQPSSVSANPGETIKITCSGGGGSYGWYQQKSPGSAPVTVIYNGNNRPSDIPSRFSGSKSGSTATLTITGVQAEDEAVYFCGGYDSGTYSGIFGAGTTLTVL = 0.01 nM
• anti-CNTN4 IgG A35SF39 (antibody, V domains shown, human IgG4 (S228P)) VH: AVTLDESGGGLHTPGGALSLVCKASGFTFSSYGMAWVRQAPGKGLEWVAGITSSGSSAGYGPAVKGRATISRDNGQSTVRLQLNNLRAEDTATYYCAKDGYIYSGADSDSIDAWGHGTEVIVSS VL: ALTQPSSVSANLGGTVKITCSGGSGSYGWYQQKSPGSAPVTVIYNNNNRPSDIPSRFSGSTSGSTGTLTITGVRAEDEAVYFCGGYDTDSPIFGAGTTLTVL = 0.01 nM
• anti-CNTN4 IgG A35WB27 (antibody, V domains shown, human IgG4 (S228P)) VH: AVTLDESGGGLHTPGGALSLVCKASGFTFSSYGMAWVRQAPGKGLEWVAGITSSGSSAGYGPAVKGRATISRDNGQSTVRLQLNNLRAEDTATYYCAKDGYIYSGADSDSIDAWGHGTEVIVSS VL: ALTQPSSVSANLGETVKITCSGGYSGYGWYQQKSPGSAPVTVIYYNDKRPSDIPSRFSGSKSGSTGTLTITGVRAEDEAVYFCGSADSSTGYVAIFGAGTTLTVL = 0.01 nM
• anti-CNTN4 IgG A35SF3 (antibody, V domains shown, human IgG4 (S228P)) VH: AVTLDESGGGLQTPGGGLSLVCKASGFTFSSYGMAWVRQAPGKGLEWVAGITSSGSSAGYGPAVKGRATISRDNGQSTVRLQLNNLRAEDTATYYCAKDGYIYSGADSDSIDAWGHGTEVIVSS VL: ALTQPSSVSANLGGTVEITCSGSSGSYGWYQQKAPGSAPVTVIYDNTNRPSDIPSRFSGSKSGSTGTLTITGVQAEDEAVYFCGGYDSSTIFGAGTTLTVL = 0.01 nM

## Task Please look at this binder and report its EC50: anti-CNTN4 IgG A35WB1 (antibody, V domains shown, human IgG4 (S228P)) VH: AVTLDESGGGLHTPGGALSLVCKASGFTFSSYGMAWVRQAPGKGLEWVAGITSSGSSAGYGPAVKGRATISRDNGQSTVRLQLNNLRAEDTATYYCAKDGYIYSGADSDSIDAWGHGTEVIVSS VL: ALTQPSSVSANPGETVKITCSGGSGSYGWYQQKSPGSAPVTVIYNNDQRPSNIPSRFSGSKSGSTATLTITGVQVEDEAVYFCGGWDSNSGAIFGAGTTLTVL
## Result 0.01 nM

## Task State, in one line, measured EC50 of anti-CNTN4 IgG A13SF1 (antibody, V domains shown, human IgG4 (S228P)) VH: AVTLDESGGGLQTPGGGLSLVCKASGFTFSSYGMAWVRQAPGKGLEWVAGITSSGSSAGYGPAVKGRATISRDNGQSTVRLQLNNLRAEDTATYYCAKDGYIYSGADSDSIDAWGHGTEVIVSS VL: ALTQPSSVSANLGGTVKITCSGGGGSYGWFQQKSPGSAPVTLIYNNNNRPSDIPSRFSGSKSGSTATLTITGVQAEDEAVYFCGGYDSSTYVGTFGAGTTLTVL
## Result 0.02 nM

## Task Please report EC50 for the following binder: anti-CNTN4 IgG A35SF13 (antibody, V domains shown, human IgG4 (S228P)) VH: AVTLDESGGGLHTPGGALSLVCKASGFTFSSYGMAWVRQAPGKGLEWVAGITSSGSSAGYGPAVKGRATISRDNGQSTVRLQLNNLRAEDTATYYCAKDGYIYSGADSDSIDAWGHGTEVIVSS VL: ALTQPSSVSANPGETVKITCSGGGGSYGWYQQKSPGSALVTVIYNNDNRPSNIPSRLSGSKSGSTATLTITGVRAEDEAVYFCGSADNNGYIAIFGAGTTLTVL
## Result 0.02 nM
